Origin of measurements: the nanobody polyreactivity screen of Harvey et al. (2022)

assay-summary: yeast display, Sf9 membrane polyspecificity reagent, FACS + sequencing; frameworks hold sequencing errors

item-sequence: QVQLVESGGGLVQAGGSLSLSCAASGSILPYNTMGWDRQAPGKERELVAAITSGVGSTYADSVKGRFTISRDNAKNTVYLQMNSLKPEDTAVYYCNASESAIPIGDLGDYWGQGTQVTVSS
polyreactivity (PSR sort gate): low polyreactivity
--
item-sequence: QVQLLESGGGLVQAGGSLRLSCAASGSTFPRYVMGWYRQAPGKERELVAAISSSSGRTFYADSVKGRFTISRDNAKNTVYLQMNSLKPEDTSVYYCAARTSFNVHYWGQGTQVTVSS
polyreactivity (PSR sort gate): high polyreactivity
--
item-sequence: QVQLVESGGGLVQAGGSLRLSCAASGRTFYAYAMGWYRQAPGKERELVAAITSGASTYYADSVKGRFTISRDNAKNTVYLQMFSLKPEDTAVYYCNAEYYEGYIGVPGSFWPYEYWGQGTQVTVSS
polyreactivity (PSR sort gate): low polyreactivity
--
item-sequence: QVQLVESGGALVQAGGSLRLSCAASGIIFGRNGMGWYRQAPGKERELVAAISRGGGSTYYADSVKGRFTISRDNAKNTVYLQMNSLKPEDTAVYYCARRPTGIYDYWGQVTQVTVSS
polyreactivity (PSR sort gate): high polyreactivity
--
item-sequence: QVQLVESGGGLVQAGGSLRLSCAASGFTFPYYAMGWSRQAPGKERELVAAITSSGTITYYADSVKGRFTISRDNAKNTVYLQMNSLKPEDTAVYYCAARFSSTRYLQWYYYWGQGTQVTVSS
polyreactivity (PSR sort gate): high polyreactivity
--
item-sequence: QVQVVESGGGLVQAGGSLRLSCAASGSIFSYNAMGWYRQAPGKERELVATITWSAGSTYYADSVKGRFTISRDNAKNPVYLQMNSLKPEDTAVYYCAKRARESSSVSRVNYWFDYWGQGTQVTVSS
polyreactivity (PSR sort gate): low polyreactivity
--
item-sequence: QVQLVESGGGLVQAGGSLRLSCAASGVIFNRYAMGWYRQAPGKERELVAAISSGGNTHYADSVKGRFTISRDNAKNTDYLQMNSLKPEDTAVYYCAKAFRHSTFFAPYDYWGQGTQVTVSS
polyreactivity (PSR sort gate): low polyreactivity
--
item-sequence: QVQLVESGGGLVQAGGSLRLISAASGSIFAKYAMGWYRHAPGKERELVAAITGSGGSTYYADSVKGRFTISRDNAKNTVYLQMNSMKPEDPAVYYCAKRRPRYTYNYCGQGTQVTVSS
polyreactivity (PSR sort gate): high polyreactivity
--
item-sequence: QVQLVESGGGLVQAGGSLRLSCAASGRIFAQYAMGWYRQAPGKERELVADISSGVRTYADSVKVRFTISRDNAKNTVYLQMNSLKPEDTAVYYCNAYYIIFTRNDYWGQGTQVTVSS
polyreactivity (PSR sort gate): low polyreactivity
--
item-sequence: QVQLVESGGGLVQAGGSFRLSCAASGSIFDGYAMGWYRQAPGTERELVAAISSGGDSTYYADSVKGRFTISRDNAKNTVYLQMNSLKPEDTAVYYCNADSLVGHSYDYWGQGTQVTVSS
polyreactivity (PSR sort gate): low polyreactivity
--
item-sequence: QVQLQESGGGLVQAGGSLRLSCAASGYISQSSVMGWYRQASGKEREFVASISYGATTYYADSVKGRFTISRDNAKNTVYLQTNSPKPEDTAVYYCAVWVKRGFSHRYWGQGTQVTVSS
polyreactivity (PSR sort gate): high polyreactivity
--
item-sequence: QVQLVESGGGLVQAGGSLRLSCAASGRTFTSNGMGWYRQAPGKERELVAAITSGTSTYYADSVKGRFTISRDNAKNPVYLQMNSLKPEDTAVYYCNKLVPRGSSYSTVIRGGGYWGQGTQVTVSS
polyreactivity (PSR sort gate): high polyreactivity
--
item-sequence: QVQLVESGGGLVQAGGSLRLSCAASGSIVSAYVMGWYRQAPGKERELVAAITRSGGSTYYADSVKGRFTISRDNAKNTVYLQMNSLKPEDTAVYYCAADRRWFAYWFDYWGQGTQVTVSS
polyreactivity (PSR sort gate): low polyreactivity
--
item-sequence: QVQLVESGGGLVQAAGSLRLSCAASGRIFFAYAMGWNRQEPGKERELVASITSGGSTNYADSVKGRFTISRDNAKNTVYLQMNSLKPEDTAVYYCAARSRFSNLYVRFYYWGQGTQVTVSS
polyreactivity (PSR sort gate): high polyreactivity
--
item-sequence: QVQLVESGGGLVQAGGSLRLSCAASGSTFFPYAMGWYRQAPGKERELVAGISSDGGTYYADSVKGRFTISRDNAKNTVYLQMNSLKPEDTAVYYCAALQADRDRYPEFDLMDYWGQGTQVTVSS
polyreactivity (PSR sort gate): low polyreactivity
--
item-sequence: QVQLVESGGGLVQAGGSLRLSCAASGNIFNDNAKGLYRKAPVKERELVAAISSGGSTNYADSVKGRFTISRDYAKNTVYLQMNSLKPEDTAVYYCAAELTLIYWWSLDYWGQGTQVTVSS
polyreactivity (PSR sort gate): low polyreactivity
--
item-sequence: QVQLVESGGGLVQAGGSLRLSCAASGSTFTTNVMGWYRQAPGKERELVAAISWSSGSTYYADSVKGRFTISRDNAKNTVYLQMNSLKPEDTAVYYCAARLVIFYPYSRYYYWGQGTQVTVSS
polyreactivity (PSR sort gate): high polyreactivity
--
item-sequence: QVQLVESGGGLVQAGGSLRLSCAASGRIFGYYGRGWYRQAPGKERELVARISGRGGSTYYADSVKGRFTLSRDNAKNTVYLQINSLKPEDTAVYYCNVVFSFWQYYAYDQGDYWGQGTQVTVSS
polyreactivity (PSR sort gate): low polyreactivity
--
item-sequence: QVQLVESGVGLVQAGGSLSITCAASGRTFAGNSMGSYRQAPGKERELVAAISQGGGSTYYADSVKGRFTISRDNAKNTVYLQMNSRKAEDTAVYYCAAEIPRRWASFATQWYDYWGLGTQVTVSS
polyreactivity (PSR sort gate): low polyreactivity
--
item-sequence: QVQLVESGGGLVQAGGSLRLSCAASGSTFYPYAMGWYRQAPGKERELVAAISYSGGSTYYADSVKGRFTISRDNAKNTVYLQMNSLKPEDTAVYYCAAYYRVYGASYDYWGQGTQVTVSS
polyreactivity (PSR sort gate): high polyreactivity
--
item-sequence: QVQLVESGGGLVQAGGSLRLSCAASGSIFYYAMGWYRQAPGKERELVADISTGGSTHYADSVKGRFTISRDNAKNTVYLQMYSLKPEDTAVYYCAKEAWRYRLNFRYNYWVQGTQVTVSS
polyreactivity (PSR sort gate): low polyreactivity

----------
assay-summary: yeast display, Sf9 membrane polyspecificity reagent, FACS + sequencing; frameworks hold sequencing errors

item-sequence: QDQLVESGGGLVQAGGSLRLSCAASGRTFTRNAMGWYRQAPGKERELVAAISISGGRPYYADSVKGRFTISRDNAKNTVYLQMNSLKPEDTAVYYWAKVTTSKYDYDYWGQGTQVTVSS
polyreactivity (PSR sort gate): high polyreactivity
//
item-sequence: QVQLVESGGGLVQAGGSLRLSCAASGRTFAYYAMGWYKQAPGKERELVAAISWSGGSTYYADSVKGRFTISRDNAKNTVYLQMNSLKPEDTAVYYCAARRYGVPPTYDYWGQGTQVTVSW
polyreactivity (PSR sort gate): high polyreactivity
//
item-sequence: QVQLVESGGGLVQAGGSLRLSCAASGYTFAPYVMGWYRQAPGKERELVARISNNGGSKYYADSVKGRFTISRDNAKNTFYLQMNSLKPEDTAVYYCAADVGLIYFRYYYCGQGTQVTVSS
polyreactivity (PSR sort gate): low polyreactivity
//
item-sequence: QVQLVESGGGLVQSGGSLRLTCAASGSILWYNGMGWYSQAPGKERELVAAITSGGSTNYADSVKGRFTISRDNAKNTFYLHMNSLKPEDTEVYYCKARPYWFGSYGYWGQGTKVTVSS
polyreactivity (PSR sort gate): low polyreactivity
//
item-sequence: QVQLVESGGGLVQAGGSLRLICAASGIIFQAYTMGWSRQAPGKERELVAAISYSGGSTYYADSVKGRFTISSDNAKNSVYLEMKSLKPEDTAVYYCARRSRYLWRYDYWGQGTQVTVSA
polyreactivity (PSR sort gate): high polyreactivity
//
item-sequence: QVQLVESGGGLVQAGGSLRLSCAASGSIFVYYGMGWYRQAPGKEWELVAAMSSGGSSHYADSVKGRFTISRVTAKNSVYLQMNSLKPEDTAVYYCPADGFFWQRSYTRYYYWGQGSQVTVSS
polyreactivity (PSR sort gate): low polyreactivity
//
item-sequence: QVQLVESGGGLVQAGGSLRLSCAASGRTFLIYAMGWYRQAPGKEREFVATITYSGGSTYYADSVKGRFTISRDNAKNTVYLQMNSLKPEDTAVYYCAAVRYGYRRSGPYNYSYDYWGQGTQVTVSS
polyreactivity (PSR sort gate): high polyreactivity
//
item-sequence: QVQLVESGGGLVQAGGSLRLSCAASGSIFGEIAMGWYRQAPGKERELVAAISSGVSTNYADSVKGRFTISRDNAKNTVYLQMNSLKPEDTAVYYCAVDSLPNSPYDYWGHGTQVTVSS
polyreactivity (PSR sort gate): low polyreactivity
//
item-sequence: QVQLVESGGGLVQAGGSLRLSCAASGSISDTYGLGWYRQAPGKERELVASITWSSGSTDYADSVKGRFTISRDNAKNTVYLQMNSLKPEDTAVYYCATYEPFYSFFFRGIYDYWGQGTQVTVSS
polyreactivity (PSR sort gate): low polyreactivity
//
item-sequence: QVQLVESGGGLVQAGGSLRISCAASGFIFDGYAMGWYRQAPGKERELVAAITYSGGSTYYADSLKGRFTISRDNAKNTVYLQMNRLKPEDTAVYYCNAEYSSFSVVQKDSDMDYWGQGTQVTVSS
polyreactivity (PSR sort gate): low polyreactivity
//
item-sequence: QVQHVESGGGLVQAGGSLRLSCAASGRIFYRNAMGWYRQAPGKERELVASITSAGRTYYADSVKGRFTISRDNAKNTVYLQMNSLKPEDTAVYYCAVRVAVLLNLYGYWGQGTQVTVSS
polyreactivity (PSR sort gate): low polyreactivity
//
item-sequence: QVQLVESGGGLVQAGGSLRLSCAASGSIFSRYAMGWYRTAPGKERELVAAINKSGGSTYYADSVKGRFTISRDNAKNTVYLQMNSLKPEDTAVYYCNAVYYWYKGDYWGQGTQVTVSS
polyreactivity (PSR sort gate): high polyreactivity
//
item-sequence: QLQLVESGGGLVQAGGSLRLSCAASGSTFHLYAMGCYREAPWNEREFVAAIRGRGGNTYADSVKGRFTISRDNAKNTVYLPMNSLKPEDTAVYYCAAAFYYYGDSDNWGQGTQVTVSS
polyreactivity (PSR sort gate): low polyreactivity
//
item-sequence: QVQLQESGCGLVQAGGCLSCTASGTIFGQGDMGWYRQAPGKERELVATINDGASTYYADSVKGRFTISRDKAKNTVYLQMNSLKPEDTAVYYCAAVIRPRYYQVRPRYDYWGQGTQVTVSS
polyreactivity (PSR sort gate): low polyreactivity
//
item-sequence: QVQLVESGGGLVQAGGSLRLSCAASGFIFYLYTMGWYRQAPGKERELVAAITRSGGTYYADSVKGRFTISRDNAKNTVYLQMNSLKPEDTAVYYCNADDYEGYYYWGQGTQVTVSS
polyreactivity (PSR sort gate): low polyreactivity
//
item-sequence: HVQLVESGGGLVQAGGSLRLSCAASGSTFKRYAMGGDRQAPGKEREFVAGISWRGGSTYYADSVKGRFTISRDNAKNTVYLQMNSLKPEDTAVYFCAARSFSNIGYHGYGYWGQGTQVTVSS
polyreactivity (PSR sort gate): high polyreactivity
//
item-sequence: QVQLVESGGGLVQAGGSLRLSCAASGSTFSYNAMGWYRQAPGKERELVAAIDANGGSTYYADSVKGRFTISRDNAKNTVYVQMNSLKPEDTAVYYCAAAGYWYYYVPNDSWGQGTQVTVSS
polyreactivity (PSR sort gate): low polyreactivity
//
item-sequence: QVQLVESGGGLVQAGGSLRLSCAASGRTFRRNAMGWYRQAPGKERELVAAISWSGSRTYYADSVKGRFTISRDNAKKTVYLQMNSLKPEDTAVYYCAAEVWSTQGSATVQYDYLGQGTQVTVSS
polyreactivity (PSR sort gate): high polyreactivity
//
item-sequence: QVQLVEAGGGLVQAGGRLRLSSAASGNIFIWYALGWYRQAPGKERELVAAIRWSGGGTYYADSVKGRFTISRDNAKNTVYFQMNSLKPEDTAVYYCAAESSASWYNFWGYEYWGQGTQVTVSS
polyreactivity (PSR sort gate): high polyreactivity
//
item-sequence: QVQLVESGGGLVQAGGSLRLSCAASGINFNLYAMGWYRQAPGKERELVAAISRSGDSTNYADSVKGRFTISRDNAKNTVDLQMNSLKPEDTAVYYCAVGYRYLKWVDYWGQGTQVTVSS
polyreactivity (PSR sort gate): high polyreactivity
//
item-sequence: QVQIVESGGGLVQAGGSLRLSCAASGFIFGIYDMGWYRQAPGKERELYADSVKGRFTISRDNAKNTVYLQMNSVKPEDTAVYYCNRAQGVHTYVYRYGYWGQGTQVTESS
polyreactivity (PSR sort gate): low polyreactivity
